# Test system: SNB-19 CNS
# ASSAY_INFO: NCI-60 one-dose screen, 48 h (100 = growth as untreated, 0 = no growth, -100 = all killed)
# TEST_CONTEXT: 10 µM
This is part of a sample that, as a whole, favours compounds with a hit. Of some 83,000 tested, about 20% had one in any assay. Calls of active or inactive are those of the source. How the source made its calls: active means growth percent below 10; inactive means the rest.
REPORTED_ENDPOINT: growth

-- ask Tell us which growth value is on record for `CCc1ccccc1-n1c(N)c(C#N)c(-c2ccc(OC)c(OC)c2)c(C#N)c1=O`
-- reply 104% (inactive)

-- ask Tell us which growth value is on record for `CC1(C)OB(c2ccc(Cn3cc(F)c(=O)[nH]c3=O)cc2)OC1(C)C`
-- reply 103% (inactive)

-- ask Tell us which growth value is on record for `CNC(=O)c1cc(Oc2ccc(CC(=O)Nc3cc(C(C)(C)C)nn3C)cc2)ccn1`
-- reply 65.3% (inactive)

-- ask Tell us which growth value is on record for `CC(C)(C)c1cc(NC(=O)Cc2ccc(-c3cnc4cc(-c5cnn(CCN6CCOCC6)c5)ccc4n3)cc2)no1`
-- reply 42.4% (inactive)

-- ask Tell us which growth value is on record for Cc1[nH]c(-c2nc3ccccc3[nH]2)c(C)c1C(=O)NC(C)C1CCCCC1 (stereo unspecified)
-- reply 86.6% (inactive)

-- ask Tell us which growth value is on record for `O=C(O)c1sccc1O`
-- reply 82.1% (inactive)

====

# Test system: BT-549 breast
# ASSAY_INFO: NCI-60 one-dose screen, 48 h (100 = growth as untreated, 0 = no growth, -100 = all killed)
# TEST_CONTEXT: 10 µM unless noted
The panel holds about 83,000 compounds, 20% with a hit somewhere; the sample as a whole holds those more often. The source made the active and inactive calls. How the source made its calls: active means growth percent below 10; inactive means the rest.
REPORTED_ENDPOINT: growth

-- ask Tell us which growth value is on record for `O=C(CCc1ccc(O)cc1)N/N=C/c1cc(Br)ccc1O`
-- reply 52.4% (inactive)

-- ask Tell us which growth value is on record for `N#C/C(=C1C=C/C(=N/O)C(Br)=C/1)c1ccccc1`
-- reply 36.2% (inactive)

-- ask Tell us which growth value is on record for `CNc1ccc2nc3ccc(=[N+](C)C)cc-3sc2c1`
-- reply 49.1% (inactive)

-- ask Tell us which growth value is on record for `O=C=NC(c1ccccc1)(c1ccccc1)c1ccccc1`
-- reply 103% (inactive)

-- ask Tell us which growth value is on record for CC(=O)NC(Cc1ccccc1)C(=O)Oc1ccc2ccccc2c1 (configuration not stated)
-- reply 110% (inactive)

-- ask Tell us which growth value is on record for `O=C(CN1CCOCC1)N1CCOCC1`
-- reply 96.9% (inactive)

-- ask Tell us which growth value is on record for `CC(C)(C)c1ccc(O)c(CNC2CCCCC2)c1`
-- reply 85.1% (inactive)

====

# Tested on: LOX IMVI melanoma
# ASSAY_INFO: NCI-60 one-dose screen, 48 h
# TEST_CONTEXT: 10 µM unless noted
Compounds without any hit were thinned out: in the full panel of roughly 83,000, 20% have a hit. Active and inactive are the calls of the source. The calls were made as follows: active = growth percent below 10; inactive = the rest.
Could you please pick one outcome from this set? active, inactive

-- ask For Nc1ccccc1SC1CC(=O)N(c2cccc3ccccc23)C1=O (stereo unspecified) , which call appears in the assay record?
-- reply inactive

-- ask For `S=C1SCN(Cc2ccccc2)CN1Cc1ccccc1` , which call appears in the assay record?
-- reply inactive

-- ask For `C[N+](C)(C)CN1C(=O)c2ccccc2C1=O` , which call appears in the assay record?
-- reply inactive

-- ask For `CC(=O)C(/C=N/C(N)=O)=C(/C)O` , which call appears in the assay record?
-- reply inactive

-- ask For `N#C/C(=C1C=C/C(=N/O)C(Br)=C/1)c1ccccc1` , which call appears in the assay record?
-- reply active

-- ask For `C1CCCCNCCC1` , which call appears in the assay record?
-- reply inactive

-- ask For `Clc1ccc(NC(Nc2ccc(Cl)cc2)C(Cl)(Cl)Cl)cc1` , which call appears in the assay record?
-- reply inactive

-- ask For `N=C1N=C(N)CS1` , which call appears in the assay record?
-- reply inactive

-- ask For `N#CCCOc1ccccc1` , which call appears in the assay record?
-- reply inactive

-- ask For `COc1ccc(Cn2c(NCCN=C(N)N)nc(=O)n(Cc3ccc(F)cc3)c2=O)cc1` , which call appears in the assay record?
-- reply inactive

-- ask For CC(O)Cn1cnc2c1c(=O)n(C)c(=O)n2C (stereo unspecified) , which call appears in the assay record?
-- reply inactive

====

# Test system: SR leukemia
# ASSAY_INFO: NCI-60 one-dose screen, 48 h (100 = growth as untreated, 0 = no growth, -100 = all killed)
# TEST_CONTEXT: 10 µM unless noted
Compounds without any hit were thinned out: in the full panel of roughly 83,000, 20% have a hit.
Assignment: determine reported growth for the given compounds.
Enter your answer as a number in %; do not include the unit.

-- ask Retrieve growth on SR leukemia; query `Clc1ccc(NC(Nc2ccc(Cl)cc2)C(Cl)(Cl)Cl)cc1`
-- reply 99.4

-- ask Retrieve growth on SR leukemia; query `Cc1ccc2nc3c(nc2c1)-c1cccc2cccc-3c12`
-- reply 64.9

-- ask Retrieve growth on SR leukemia; query `S=C1SCN(Cc2ccccc2)CN1Cc1ccccc1`
-- reply 52.9

-- ask Retrieve growth on SR leukemia; query `O=[N+]([O-])c1ccc(/C=N\NC(=S)Nc2ccc(F)cc2)cc1`
-- reply 99.7

-- ask Retrieve growth on SR leukemia; query CC1=NN(c2ccccc2)C(=O)C1C(=O)c1ccccc1 (stereo unspecified)
-- reply 82.7

-- ask Retrieve growth on SR leukemia; query `COc1cc(C(=O)N/N=C/c2ccc(N(C)C)cc2)cc(OC)c1OC`
-- reply 6.85

====

# Test system: MCF7 breast
# ASSAY_INFO: NCI-60 one-dose screen, 48 h (100 = growth as untreated, 0 = no growth, -100 = all killed)
# TEST_CONTEXT: 10 µM
Compounds without any hit were thinned out: in the full panel of roughly 83,000, 20% have a hit.
REPORTED_ENDPOINT: growth (%)
Enter your answer as a number in %; do not include the unit.

-- ask Tell us which growth value is on record for `CCc1ccccc1-n1c(N)c(C#N)c(-c2ccc(OC)c(OC)c2)c(C#N)c1=O`
-- reply 115

-- ask Tell us which growth value is on record for CCCCCCCCCCCCCCCc1ccc(Cl)c(O)c1Cl (tested in a mixture with another compound)
-- reply 112

-- ask Tell us which growth value is on record for `CC1(C)OB(c2ccc(Cn3cc(F)c(=O)[nH]c3=O)cc2)OC1(C)C`
-- reply 100

-- ask Tell us which growth value is on record for `CC#C[C@]1(O)CC[C@H]2[C@@H]3CCC4=CC(=O)CCC4=C3[C@@H](c3ccc4c(c3)OCO4)C[C@@]21C`
-- reply 82.2

====

# Test system: EKVX NSCLC
# ASSAY_INFO: NCI-60 one-dose screen, 48 h (100 = growth as untreated, 0 = no growth, -100 = all killed)
# TEST_CONTEXT: 10 µM
Compounds without any hit were thinned out: in the full panel of roughly 83,000, 20% have a hit.
Entry flag: true (1) if growth reaches 80%; false (0) if it does not.

-- ask # bool: growth of CCCCCCCCCCCCCCCc1ccc(Cl)c(O)c1Cl (tested in a mixture with another compound) >= 80%
-- reply true (1)

-- ask # bool: growth of `CC#C[C@]1(O)CC[C@H]2[C@@H]3CCC4=CC(=O)CCC4=C3[C@@H](c3ccc4c(c3)OCO4)C[C@@]21C` >= 80%
-- reply false (0)

-- ask # bool: growth of Cc1[nH]c(-c2nc3ccccc3[nH]2)c(C)c1C(=O)NC(C)C1CCCCC1 (configuration not stated) >= 80%
-- reply true (1)

-- ask # bool: growth of `CC1(C)OB(c2ccc(Cn3cc(F)c(=O)[nH]c3=O)cc2)OC1(C)C` >= 80%
-- reply true (1)

-- ask # bool: growth of `CNC(=O)c1cc(Oc2ccc(CC(=O)Nc3cc(C(C)(C)C)nn3C)cc2)ccn1` >= 80%
-- reply false (0)

-- ask # bool: growth of `CCc1ccccc1-n1c(N)c(C#N)c(-c2ccc(OC)c(OC)c2)c(C#N)c1=O` >= 80%
-- reply true (1)

====

# Test system: MALME-3M melanoma
# ASSAY_INFO: NCI-60 one-dose screen, 48 h (100 = growth as untreated, 0 = no growth, -100 = all killed)
# TEST_CONTEXT: 10 µM unless noted
This is part of a sample that, as a whole, favours compounds with a hit. Of some 83,000 tested, about 20% had one in any assay.
REPORTED_ENDPOINT: growth (%)
Enter your answer as a number in %; do not include the unit.

-- ask Retrieve growth on MALME-3M melanoma; query O=C1c2c(O)cc(O)cc2OC(c2ccc(O)c(O)c2)C1O (configuration not stated)
-- reply 118

-- ask Retrieve growth on MALME-3M melanoma; query CCN(CC)CCCC(C)N(Cc1ccccc1)CC(O)c1ccc(Cl)cc1 (configuration not stated)
-- reply 103

-- ask Retrieve growth on MALME-3M melanoma; query `Clc1nc(Oc2ccccc2)nc(-c2cn(-c3ccccc3)c3ccccc23)n1`
-- reply 85.7

-- ask Retrieve growth on MALME-3M melanoma; query `OCc1ccccn1`
-- reply 115

-- ask Retrieve growth on MALME-3M melanoma; query CC(/C=N/N1C(=O)c2ccccc2C1=O)c1ccccc1 (configuration not stated)
-- reply 101

-- ask Retrieve growth on MALME-3M melanoma; query `N#CCCOc1ccccc1`
-- reply 95.1

-- ask Retrieve growth on MALME-3M melanoma; query Nc1ccccc1SC1CC(=O)N(c2cccc3ccccc23)C1=O (configuration not stated)
-- reply 101

-- ask Retrieve growth on MALME-3M melanoma; query `Nc1ccc2[nH]c(-c3ccccc3)cc(=O)c2c1`
-- reply 80.4

-- ask Retrieve growth on MALME-3M melanoma; query Oc1ccccc1C=NCC1CCC(CN=Cc2ccccc2O)CC1 (configuration not stated)
-- reply 113

-- ask Retrieve growth on MALME-3M melanoma; query `O=C(O)CSCc1nc2ccccc2[nH]1`
-- reply 127

-- ask Retrieve growth on MALME-3M melanoma; query `CN(Cc1ccccc1)Cc1ccccc1`
-- reply 91.4

-- ask Retrieve growth on MALME-3M melanoma; query CC1CCCC(=O)O1 (configuration not stated)
-- reply 104

-- ask Retrieve growth on MALME-3M melanoma; query `N=C1N=C(N)CS1`
-- reply 114

-- ask Retrieve growth on MALME-3M melanoma; query NC(=O)c1ccccc1OCC(O)CO (configuration not stated)
-- reply 115

-- ask Retrieve growth on MALME-3M melanoma; query `Cn1c(=O)c2[nH]c(CCCCCCCCc3nc4ccccc4[nH]3)nc2n(C)c1=O`
-- reply 71.9

-- ask Retrieve growth on MALME-3M melanoma; query `Cc1nnc(NC/C=C/c2ccccc2)s1`
-- reply 99.6

-- ask Retrieve growth on MALME-3M melanoma; query `O=C(CN1CCOCC1)N1CCOCC1`
-- reply 90.6

-- ask Retrieve growth on MALME-3M melanoma; query `O=C(CCl)c1ccc2c(c1)Nc1ccccc1S2`
-- reply 91.5

-- ask Retrieve growth on MALME-3M melanoma; query `N#C/C(=C/c1c(O)ccc2ccccc12)C(N)=O`
-- reply 99.4

-- ask Retrieve growth on MALME-3M melanoma; query CCOC(=O)C(C(=O)OCC)C(c1ccccc1)N1CCN(c2ccccc2)CC1 (configuration not stated)
-- reply 92.2

-- ask Retrieve growth on MALME-3M melanoma; query `CC1=C(/C=C/C(C)=C/C=C/C(C)=C/C(=O)Nc2ccc(O)cc2)C(C)(C)CCC1`
-- reply 76.1

-- ask Retrieve growth on MALME-3M melanoma; query CC1=NN(c2ccccc2)C(=O)C1C(=O)c1ccccc1 (configuration not stated)
-- reply 97.6

-- ask Retrieve growth on MALME-3M melanoma; query `O=[N+]([O-])c1ccc(N/N=C\c2cc(Br)ccc2O)nc1`
-- reply 16.6

-- ask Retrieve growth on MALME-3M melanoma; query `CCOC(=O)c1sc(N)nc1-c1ccccc1`
-- reply 120

-- ask Retrieve growth on MALME-3M melanoma; query `COc1ccccc1NC(=O)OCC#CCOC(=O)Nc1ccccc1OC`
-- reply 96.6

-- ask Retrieve growth on MALME-3M melanoma; query `O=C1c2ccccc2C(=O)N1/N=C/c1ccc2c(c1)OCO2`
-- reply 110

-- ask Retrieve growth on MALME-3M melanoma; query `Cc1ccc2nc3c(nc2c1)-c1cccc2cccc-3c12`
-- reply 124

-- ask Retrieve growth on MALME-3M melanoma; query `O=C(CCc1ccc(O)cc1)N/N=C/c1cc(Br)ccc1O`
-- reply 87.1

-- ask Retrieve growth on MALME-3M melanoma; query CC(O)Cn1cnc2c1c(=O)n(C)c(=O)n2C (configuration not stated)
-- reply 110

-- ask Retrieve growth on MALME-3M melanoma; query `Cc1n[nH]c(=O)n(/N=C\c2c[nH]c3ccccc23)c1=O`
-- reply 97

-- ask Retrieve growth on MALME-3M melanoma; query NCCSC(C[N+](=O)[O-])c1ccccc1Cl (configuration not stated)
-- reply 98.8

-- ask Retrieve growth on MALME-3M melanoma; query CCC(=O)C(CC)c1cccc(OC)c1 (configuration not stated)
-- reply 101

-- ask Retrieve growth on MALME-3M melanoma; query NS(=O)(=O)c1cc2c(cc1Cl)NC(C(Cl)Cl)NS2(=O)=O (configuration not stated)
-- reply 107

-- ask Retrieve growth on MALME-3M melanoma; query `NC(=S)NS(=O)(=O)c1ccc(N)cc1`
-- reply 96.6

-- ask Retrieve growth on MALME-3M melanoma; query `C1CCCCNCCC1`
-- reply 106

-- ask Retrieve growth on MALME-3M melanoma; query `Fc1ccccc1Nc1n[nH]c(=S)s1`
-- reply 127

-- ask Retrieve growth on MALME-3M melanoma; query `S=C1SCN(Cc2ccccc2)CN1Cc1ccccc1`
-- reply 92.1

-- ask Retrieve growth on MALME-3M melanoma; query `CC(=O)C(/C=N/C(N)=O)=C(/C)O`
-- reply 106

-- ask Retrieve growth on MALME-3M melanoma; query `Cc1ccc(-c2noc(C)n2)cc1`
-- reply 108

-- ask Retrieve growth on MALME-3M melanoma; query `O=C=NC(c1ccccc1)(c1ccccc1)c1ccccc1`
-- reply 95.2

-- ask Retrieve growth on MALME-3M melanoma; query `Nc1n[nH]c(=S)n1-c1ccc(Cl)cc1`
-- reply 102

-- ask Retrieve growth on MALME-3M melanoma; query `CCCCCCCCCCCCCCCCOc1ccc(C)cc1`
-- reply 103

The reported measurements were obtained from PubChem BioAssay (NCI).
